# Experimental system: 5-hydroxytryptamine receptor 1A (Homo sapiens, UniProt P08908)
# Sequence (P08908 whole entry): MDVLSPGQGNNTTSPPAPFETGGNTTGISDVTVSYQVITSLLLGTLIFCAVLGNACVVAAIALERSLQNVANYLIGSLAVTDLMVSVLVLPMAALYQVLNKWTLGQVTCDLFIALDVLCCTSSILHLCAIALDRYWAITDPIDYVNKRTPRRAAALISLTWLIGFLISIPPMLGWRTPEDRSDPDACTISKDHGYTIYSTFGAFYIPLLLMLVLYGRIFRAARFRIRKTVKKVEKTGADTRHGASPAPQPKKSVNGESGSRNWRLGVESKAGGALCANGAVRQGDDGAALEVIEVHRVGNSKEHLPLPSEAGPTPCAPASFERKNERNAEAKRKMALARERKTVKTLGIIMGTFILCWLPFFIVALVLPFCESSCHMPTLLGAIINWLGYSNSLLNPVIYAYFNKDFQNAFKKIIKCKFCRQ
Reported metric: pKi
pKi here is simply -log10 of the concentration when that concentration is written in mol/L.

Param readout = pKi; param system = 5-hydroxytryptamine receptor 1A (Homo sapiens, UniProt P08908); param query = CC(C)c1nc2c(N3CCNCC3)ccnc2n1Cc1cccc(Cl)c1 ; response: value
5.64

----------
# Experimental system: hERG (KCNH2) (Homo sapiens, UniProt Q12809)
# Sequence (Q12809 whole entry): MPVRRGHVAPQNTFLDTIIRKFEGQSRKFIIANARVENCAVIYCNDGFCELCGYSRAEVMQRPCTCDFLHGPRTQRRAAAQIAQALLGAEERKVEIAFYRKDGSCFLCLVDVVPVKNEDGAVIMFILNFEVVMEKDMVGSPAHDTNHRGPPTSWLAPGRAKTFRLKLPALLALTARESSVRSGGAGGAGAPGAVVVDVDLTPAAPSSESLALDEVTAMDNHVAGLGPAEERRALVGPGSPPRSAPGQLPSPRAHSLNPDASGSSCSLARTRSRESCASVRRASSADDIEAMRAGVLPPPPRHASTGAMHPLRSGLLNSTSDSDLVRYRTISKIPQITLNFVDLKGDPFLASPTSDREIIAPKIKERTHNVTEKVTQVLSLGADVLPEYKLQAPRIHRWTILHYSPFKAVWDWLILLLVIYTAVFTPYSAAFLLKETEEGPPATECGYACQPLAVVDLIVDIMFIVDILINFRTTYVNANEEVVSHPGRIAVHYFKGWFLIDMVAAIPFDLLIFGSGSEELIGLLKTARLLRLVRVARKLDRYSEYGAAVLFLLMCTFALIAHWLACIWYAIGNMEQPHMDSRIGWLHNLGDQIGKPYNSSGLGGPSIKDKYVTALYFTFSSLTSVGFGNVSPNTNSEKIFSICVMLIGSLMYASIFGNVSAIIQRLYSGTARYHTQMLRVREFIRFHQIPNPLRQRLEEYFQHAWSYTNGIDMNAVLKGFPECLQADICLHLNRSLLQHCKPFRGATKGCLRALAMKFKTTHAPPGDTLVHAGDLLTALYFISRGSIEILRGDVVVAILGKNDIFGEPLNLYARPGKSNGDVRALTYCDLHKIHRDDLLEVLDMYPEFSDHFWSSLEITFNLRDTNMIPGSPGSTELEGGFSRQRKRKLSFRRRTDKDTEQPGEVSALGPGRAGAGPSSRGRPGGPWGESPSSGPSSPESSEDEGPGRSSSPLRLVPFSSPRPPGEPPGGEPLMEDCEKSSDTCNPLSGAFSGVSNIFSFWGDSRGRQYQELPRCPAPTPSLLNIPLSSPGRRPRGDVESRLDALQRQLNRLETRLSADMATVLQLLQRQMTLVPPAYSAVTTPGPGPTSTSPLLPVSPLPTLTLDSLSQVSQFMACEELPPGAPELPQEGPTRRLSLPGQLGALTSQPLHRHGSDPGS
# Experiment summary: Displacement of [3H]Dofetilide from recombinant human ERG at 1 uM after 60 mins by scintillation counting relative to control
# Details: probe [3H]Dofetilide
Reported metric: inhibition at 1 h, 1 µM (%)
State the answer as a number, implicitly in %.

# get_value(readout='inhibition at 1 h, 1 µM', item= CCc1nc2c(N3CCNCC3)ccnc2n1Cc1cccc(F)c1 )
-6.1

----------
# Experimental system: 5-hydroxytryptamine receptor 6 (Homo sapiens, UniProt P50406)
# Sequence (P50406 whole entry): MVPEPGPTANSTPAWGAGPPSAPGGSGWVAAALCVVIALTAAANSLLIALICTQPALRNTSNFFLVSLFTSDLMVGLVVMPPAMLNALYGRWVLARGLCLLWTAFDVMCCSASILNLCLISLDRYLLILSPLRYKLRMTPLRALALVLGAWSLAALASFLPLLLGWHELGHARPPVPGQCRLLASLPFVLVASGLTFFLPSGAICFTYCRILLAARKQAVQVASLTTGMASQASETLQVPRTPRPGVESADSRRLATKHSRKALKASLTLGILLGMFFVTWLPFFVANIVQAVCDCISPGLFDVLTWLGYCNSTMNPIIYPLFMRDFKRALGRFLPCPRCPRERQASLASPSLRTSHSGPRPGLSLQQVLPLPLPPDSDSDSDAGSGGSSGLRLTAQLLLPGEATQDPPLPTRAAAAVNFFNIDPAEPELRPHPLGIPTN
# Experiment summary: Displacement of [3H]-LSD from human 5HT6R expressed in HEK293 cell membranes after 1 hr by microbeta counting method
pKi: −log10 of the molar value.
Would you mind labelling by pKi? At or over 7 is criterion met, under is criterion not met.

Identify whether the reported pKi of the following molecule is 7 or greater: Cc1nc2c(N3CCNCC3)ccnc2n1Cc1cccc(Cl)c1
criterion met

Can you check COc1cccc(Cn2c(CC(C)(C)C)nc3c(N4CCNCC4)ccnc32)c1 next?
criterion not met

Can you check CCc1nc2c(N3CCNCC3)ccnc2n1CCc1cccc(F)c1 next?
criterion met

Can you check Cc1nc2c(N3CCNCC3)ccnc2n1Cc1ccccc1Cl next?
criterion not met

Can you check c1ccc(Cn2cnc3c(N4CCNCC4)nccc32)cc1 next?
criterion not met

Can you check Cc1nc2c(N3CCNCC3)ccnc2n1Cc1ccc(F)cc1 next?
criterion not met

Can you check COc1ccccc1Cn1c(C)nc2c(N3CCNCC3)ccnc21 next?
criterion not met

Can you check CCC(CC)c1nc2c(N3CCNCC3)ccnc2n1Cc1cccc(Cl)c1 next?
criterion met

----------
# Experiment summary: Tmax in Wistar rat at 10 mg/kg, po administered as single dose by LC/MS analysis
# Format: ADME, organism-based
# Details: in vivo
Reported metric: Tmax (min)
State the answer as a number, implicitly in min.

# get_value(readout='Tmax', item= CCc1nc2c(N3CCNCC3)ccnc2n1Cc1cccc(F)c1 )
15

----------
# Experimental system: UniProtKB P50406
# Experiment summary: Displacement of [3H]-LSD from human 5HT6R expressed in HEK293 cell membranes after 1 hr by microbeta counting method
I'd be grateful if you could share measured Ki for these entries.
State the answer as a number, implicitly in µM.

# get_value(readout='Ki', item= Cc1nc2c(N3CCNCC3)nccc2n1Cc1ccccc1 )
0.374

Can you check CCC(CC)c1nc2c(N3CCNCC3)ccnc2n1Cc1cccc(C)c1 next?
0.042

Can you check Cc1nc2c(N3CCNCC3)ccnc2n1CCc1cccc(Cl)c1 next?
0.312

Can you check CCc1nc2c(N3CCNCC3)ccnc2n1Cc1cccc(Cl)c1 next?
0.007

Can you check CC(C)c1nc2c(N3CCNCC3)ccnc2n1Cc1ccc(F)cc1 next?
0.08

Can you check CCc1nc2c(N3CCNCC3)ccnc2n1CCc1cccc(Cl)c1 next?
0.042

Can you check Cc1nc2c(N3CCNCC3)ccnc2n1Cc1cccc(C(F)(F)F)c1 next?
0.062

Can you check CCc1nc2c(N3CCNCC3)ccnc2n1Cc1cc(F)ccc1F next?
0.057

Can you check Clc1cccc(Cn2cnc3c(N4CCNCC4)nccc32)c1 next?
0.32

Can you check CCc1nc2c(N3CCNCC3)ccnc2n1Cc1ccc(F)c(F)c1 next?
0.139

Can you check Fc1ccc(-c2nc3c(N4CCNCC4)ccnc3n2Cc2cccc(F)c2)cc1 next?
0.162

Can you check Cc1cccc(Cn2c(CC(C)(C)C)nc3c(N4CCNCC4)ccnc32)c1 next?
0.142

Can you check c1ccc(Cn2cnc3c(N4CCNCC4)ccnc32)cc1 next?
0.11

Can you check Clc1cccc(Cn2c(-c3cccs3)nc3c(N4CCNCC4)ccnc32)c1 next?
0.165

Can you check CC(C)c1nc2c(N3CCNCC3)ccnc2n1Cc1ccc(Cl)cc1 next?
0.107

Can you check Clc1cccc(Cn2cnc3c(N4CCNCC4)ccnc32)c1 next?
0.033

Can you check CCc1nc2c(N3CCNCC3)ccnc2n1Cc1ccccc1Cl next?
0.177

Can you check CC(C)c1nc2c(N3CCNCC3)ccnc2n1Cc1cccc(F)c1 next?
0.013

Can you check Cc1cccc(Cn2c(C)nc3c(N4CCNCC4)ccnc32)c1 next?
0.026

Can you check Cc1nc2c(N3CCNCC3)nccc2n1Cc1cccc(Cl)c1 next?
0.254

Can you check Clc1cccc(CCn2cnc3c(N4CCNCC4)ccnc32)c1 next?
1.25

Can you check CCC(CC)c1nc2c(N3CCNCC3)ccnc2n1Cc1ccccc1Cl next?
0.108

Can you check Fc1cccc(CCn2cnc3c(N4CCNCC4)ccnc32)c1 next?
1.3

Can you check CCc1nc2c(N3CCNCC3)ccnc2n1Cc1ccccc1 next?
0.036
